biological target: Glucocorticoid receptor (Homo sapiens); assay: qHTS assay to identify small molecule agonists of the glucocorticoid receptor (GR) signaling pathway (AID 720691); conditions: GR-bla HeLa, beta-lactamase reporter ratio, 18 h; series mostly up to 62.4 µM; for activation: % is set by controls: 0 for no effect and ±100 for the full control effect
Inconclusive results are not listed. Activity calls are given as the source filed them. Calls come from the whole dose curve; as a rule, active = well fitted activation curve with a large enough effect in the signal ratio in the repeat runs (not every such curve was filed as active); inconclusive = weak or mixed curves, or effect the other way; inactive = no such curve, though single readings can be large or run the other way; the % refers to the signal ratio.
Write down one outcome, taken from 1 (active), 0 (inactive)

Here are 8 molecules together with their reported answers.
{"columns": ["molecule", "target", "class-label"],
 "data": [
  ["O=C(O)CNC(=O)CNC(=O)CNC(=O)CSC(=O)c1ccccc1", "Glucocorticoid receptor (Homo sapiens)", 0],
  ["CCCC(=O)Nc1ccc(OCC(O)CNC(C)C)c(C(C)=O)c1 (configuration not stated)", "Glucocorticoid receptor (Homo sapiens)", 0],
  ["C=CCCCC", "Glucocorticoid receptor (Homo sapiens)", 0],
  ["C=CCN1C[C@H](C(=O)N(CCCN(C)C)C(=O)NCC)C[C@@H]2c3cccc4[nH]cc(c34)C[C@H]21", "Glucocorticoid receptor (Homo sapiens)", 0],
  ["CC1=C(O)C(=O)C(C)O1 (configuration not stated)", "Glucocorticoid receptor (Homo sapiens)", 0],
  ["CC(N)CCCC(C)(C)O (configuration not stated)", "Glucocorticoid receptor (Homo sapiens)", 0],
  ["O=Cc1ccccc1Cl", "Glucocorticoid receptor (Homo sapiens)", 0],
  ["CC1CCc2c(N3CCC(O)CC3)c(F)cc3c(=O)c(C(=O)O)cn1c23 (configuration not stated)", "Glucocorticoid receptor (Homo sapiens)", 0]
]}

Request: # outcome recorded in this test, key = CC1(C)O[C@H]2CC(=O)OC[C@]23[C@H]2CC[C@@]4(C)[C@H](c5ccoc5)OC(=O)[C@H]5O[C@]54[C@]2(C)C(=O)C[C@@H]13
Response: 1

Request: # outcome recorded in this test, key = CN(C)CCN(C)CCO
Response: 0

Request: # outcome recorded in this test, key = CCCC(=O)OC/C=C(\C)CCC=C(C)C
Response: 0

Request: # outcome recorded in this test, key = O=C(O)CCCCCC(=O)O
Response: 0

* * *

test: qHTS assay for identifying genotoxic compounds that show differential cytotoxicity against isogenic chicken DT40 cell lines with known DNA damage response pathways - Rev3 mutant cell line (AID 743014); details: chicken DT40 Rev3-/- viability, CellTiter-Glo, 40 h; series mostly up to 68.4 µM; note: % is set by controls: 0 for no effect and ±100 for the full control effect; nearly all actives have a fitted effect of over 55% in size
Inconclusive results are not listed. The source made the active and inactive calls. Calls come from the whole dose curve; as a rule, active = well fitted cell-killing curve with a large enough effect in the repeat runs; inconclusive = weak or mixed curves, or effect the other way; inactive = no such curve, though single readings can be large or run the other way.
measurement-label: outcome

{"columns": ["compound", "result"],
 "data": [
  ["O=C(Cl)c1ccccc1[N+](=O)[O-]", "inactive"],
  ["CCCCCCCCCCCCCCCCCCOCCO", "inactive"],
  ["C/C=C(\\C)C(=O)OCCc1ccccc1", "inactive"],
  ["Cn1nnc2c(C(N)=O)ncn2c1=O", "inactive"],
  ["CCCc1ccc(O)cc1", "inactive"],
  ["CCCCOCC(C)O (stereo unspecified)", "inactive"],
  ["CC1(C)CC(OC(=O)CCCCCCCCC(=O)OC2CC(C)(C)NC(C)(C)C2)CC(C)(C)N1", "inactive"],
  ["OC[C@H]1O[C@@H](O[C@@H]2[C@@H](CO)O[C@](O)(CO)[C@H]2O)[C@H](O)[C@@H](O)[C@H]1O", "inactive"]
]}

// next entry
Request: Return value of outcome for input CCC[C@@H]1C[C@@H](C(=O)N[C@@H]([C@H]2O[C@H](SC)[C@H](O)[C@@H](O)[C@H]2O)[C@@H](C)O)N(C)C1 , no commentary.
Response: inactive
